Could you please report measured normalized growth for the items listed next?
- METHOD DESCRIPTION: chemical genetic growth profiling, strain panel (AID 1159580);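 also: tested at 20 µM; growth read once vehicle control cultures reached saturation at 30 °C; 1 = growth at the plate median or of vehicle wells; lower values mean less growth of the strain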
- ASSAY SETUP: S. cerevisiae deletion strains, growth OD, locus YGR078C, strain PAC10, stronger effect = lower value
About 2,000 (36%) of roughly 5,500 compounds were called active. Roughly 18% stayed inconclusive and do not appear here. This is one part of the list.
The answer should be written as a number, with no unit following it.

Query: Specify normalized growth for CC(C1OC(C)(C)C(O)C1O)[C@@H]1CC[C@]2(C)C3=CCC4C(C)(C)C(=O)CC[C@]4(C)C3CC[C@@]12C (stereo partly specified) and stop.
Response: 0.91

Query: Return value of normalized growth for input "Cc1onc(-c2ccc(Cl)cc2)c1-c1ccnn1C(=O)NC(C)C" , no commentary.
Response: 0.92

Query: Input "NC(=O)c1ncn([C@@H]2O[C@H](CO)[C@@H](O)[C@H]2O)n1" , output reported normalized growth.
Response: 1.02

Query: Read the entry "COC(=O)[C@@H]1[C@H]2C[C@H]3c4[nH]c5ccccc5c4CCN3C[C@@H]2CC[C@@H]1O" and write its reported normalized growth.
Response: 0.987

Query: Supply reported normalized growth belonging to this compound: "COc1ccc(CCNc2ccc(C(F)(F)F)cc2N)cc1OC"
Response: 0.985

Query: Return normalized growth (reported value) for this compound: "O=[N+]([O-])c1ccc(OCCCOc2ccc([N+](=O)[O-])cc2)cc1"
Response: 0.991
